subjectOfTest: KRAS G12V (Homo sapiens, UniProt P01116+P62937, G12V)
Sequence (P01116 1-169 isoform P01116-2 G12V limits assumed): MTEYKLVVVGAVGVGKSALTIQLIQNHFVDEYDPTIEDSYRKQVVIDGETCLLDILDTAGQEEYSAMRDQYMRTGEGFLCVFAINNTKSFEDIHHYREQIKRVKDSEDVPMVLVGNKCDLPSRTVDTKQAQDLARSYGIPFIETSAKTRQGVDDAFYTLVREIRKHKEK
Sequence (P62937 whole entry): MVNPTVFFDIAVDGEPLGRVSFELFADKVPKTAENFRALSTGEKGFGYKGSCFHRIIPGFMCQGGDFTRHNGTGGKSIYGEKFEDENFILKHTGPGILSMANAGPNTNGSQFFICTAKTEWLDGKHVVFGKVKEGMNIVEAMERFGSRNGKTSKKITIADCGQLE
assaySummary: Ras-Raf disruption / FRET / MOA assay (BRAF RBD)
Format: biochemical
recordedConditions: KRAS G12V FRET data IC50, Ras-Raf disruption, with Cyclophilin A
pIC50: −log10 of the molar value.
reportedMetric: pIC50

Before answering, review these 5 worked examples.
• CCn1c(-c2cccnc2[C@H](C)OC)c2c3cc(ccc31)-c1cc(O)cc(c1)C[C@H](NC(=O)[C@H](C(C)C)N(C)C(=O)CNC(=O)[C@@H]1CN1)C(=O)N1CCC[C@H](N1)C(=O)OCC(C)(C)C2 = 7.00 to 8.00
• CCn1c(-c2cccnc2[C@H](C)OC)c2c3cc(ccc31)-c1cc(O)cc(c1)C[C@H](NC(=O)[C@H](C(C)C)N(C)C(=O)CN(C)C(=O)[C@@H]1CN1CC1COC1)C(=O)N1CCC[C@H](N1)C(=O)OCC(C)(C)C2 (some centres unmarked) = 7.00 to 8.00
• CCn1c(-c2cccnc2[C@H](C)OC)c2c3cc(ccc31)-c1cc(O)cc(c1)C[C@H](NC(=O)[C@H](C(C)C)N(C)C(=O)CN(C)C(=O)[C@@H]1N[C@H]1C(F)(F)F)C(=O)N1CCC[C@H](N1)C(=O)OCC(C)(C)C2 = 7.00 to 8.00
• CCn1c(-c2cccnc2[C@H](C)OC)c2c3cc(ccc31)-c1cc(O)cc(c1)C[C@H](NC(=O)[C@H](C1CCCC1)N(C)C(=O)[C@@H](C)N(C)C(=O)[C@@H]1N[C@@H]1C1CC1)C(=O)N1CCC[C@H](N1)C(=O)OCC(C)(C)C2 = < 5.00
• CCn1c(-c2cccnc2[C@H](C)OC)c2c3cc(ccc31)-c1cc(O)cc(c1)C[C@H](NC(=O)[C@H](C(C)C)N(C)C(=O)CN(C)C(=O)[C@H]1CN1Cc1ccccc1F)C(=O)N1CCC[C@H](N1)C(=O)OCC(C)(C)C2 (some centres unmarked) = 7.00 to 8.00

Give recorded pIC50 with KRAS G12V (Homo sapiens, UniProt P01116+P62937, G12V) for the following compound: CCn1c(-c2cccnc2[C@H](C)OC)c2c3cc(ccc31)-c1cc(O)cc(c1)C[C@H](NC(=O)[C@H](C(C)C)N(C)C(=O)CN(C)C(=O)C1CN1CCOC)C(=O)N1CCC[C@H](N1)C(=O)OCC(C)(C)C2 (some centres unmarked)
7.00 to 8.00

Notebook entry, KRAS G12V (Homo sapiens, UniProt P01116+P62937, G12V) assay: pIC50 of CCn1c(-c2cccnc2[C@H](C)OC)c2c3cc(ccc31)-c1cc(O)cc(c1)C[C@H](NC(=O)[C@H](C(C)C)N(C)C(=O)CN(C)C(=O)[C@H]1CN1CC1COC1)C(=O)N1CCC[C@H](N1)C(=O)OCC(C)(C)C2 (some centres unmarked) = ?
6.00 to 7.00

Checklist item: pIC50 tested on KRAS G12V (Homo sapiens, UniProt P01116+P62937, G12V), entry CCn1c(-c2cccnc2[C@H](C)OC)c2c3cc(ccc31)-c1cc(O)cc(c1)C[C@H](NC(=O)[C@H](C(C)C)N(C)C(=O)CN(C)C(=O)[C@@H]1N[C@H]1C1COC1)C(=O)N1CCC[C@H](N1)C(=O)OCC(C)(C)C2 , value?
7.00 to 8.00

----------
subjectOfTest: KRAS G12D (Homo sapiens, UniProt P01116+P62937, G12D)
Sequence (P01116 1-169 isoform P01116-2 G12D limits assumed, one chain of several): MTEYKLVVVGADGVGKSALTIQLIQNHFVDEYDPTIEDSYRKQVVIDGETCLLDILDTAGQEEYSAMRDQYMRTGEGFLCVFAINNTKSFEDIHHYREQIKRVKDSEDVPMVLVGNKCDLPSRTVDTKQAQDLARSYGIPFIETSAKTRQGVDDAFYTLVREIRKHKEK
assaySummary: Disruption of BRAF RBD interaction with Ras (FRET / MOA assay, with Cyclophilin A)
Format: biochemical
recordedConditions: read-out: KRAS G12D FRET data, IC50
pIC50: −log10 of the molar value.
reportedMetric: pIC50

Look over these answered cases.
- CCN1CC(C(=O)N(C)[C@H](C(=O)N[C@H]2Cc3cc(O)cc(c3)-c3ccc4c(c3)c(c(-c3cccnc3[C@H](C)OC)n4CC)CC(C)(C)COC(=O)[C@@H]3CCCN(N3)C2=O)C(C)C)CC1=O (stereo partly drawn): 6.00 to 7.00
- C=CC(=O)N1CC[C@H](C(=O)N(C)[C@H](C(=O)N[C@H]2Cc3cc(cc(O)c3F)-c3ccc4c(c3)c(c(-c3ccccc3CCOC)n4CC)CC(C)(C)COC(=O)[C@@H]3CCCN(N3)C2=O)C(C)C)C1: < 5.00
- CCn1c(-c2cccnc2[C@H](C)OC)c2c3cc(ccc31)-c1cc(O)cc(c1)C[C@H](NC(=O)[C@H](C(C)C)N(C)C(=O)C1CN(C)C1)C(=O)N1CCC[C@H](N1)C(=O)OCC(C)(C)C2 (atropisomer, axis not shown): 7.00 to 8.00
- CCn1c(-c2cccnc2[C@H](C)OC)c2c3cc(ccc31)-c1csc(n1)C[C@H](NC(=O)[C@H](C(C)C)N(C)C(=O)N1CC3(CN(C)CCO3)C1)C(=O)N1CCC[C@H](N1)C(=O)OCC(C)(C)C2: 5.00 to 6.00

We now examine a further compound.
Bench note: what pIC50 did C=CC(=O)N1CC[C@H](C(=O)N(C)[C@H](C(=O)N[C@H]2Cc3cc(O)cc(c3)-c3cc(F)c4c(c3)c(c(-c3ccccc3CCOC)n4CC)CC(C)(C)COC(=O)[C@@H]3CCCN(N3)C2=O)C(C)C)C1 show?
< 5.00

----------
subjectOfTest: KRAS G12D (Homo sapiens, UniProt P01116+P62937, G12D)
assaySummary: Ras-Raf disruption / FRET / MOA assay (BRAF RBD)
Assay type: biochemical
recordedConditions: Ras-Raf disruption, with Cyclophilin A; read-out: KRAS G12D FRET data IC50
pIC50: −log10 of the molar value.
reportedMetric: pIC50

* CCn1c(-c2cccnc2[C@H](C)OC)c2c3cc(ccc31)-c1csc(n1)C[C@H](NC(=O)[C@H](C(C)C)N(C)C(=O)N1CCC[C@H](N(C)C(=O)[C@@H]3CN3)C1)C(=O)N1CCC[C@H](N1)C(=O)OCC(C)(C)C2 (atropisomer, axis not shown) | 5.00 to 6.00

Need pIC50, item CCn1c(-c2cccnc2[C@H](C)OC)c2c3cc(ccc31)-c1cccc(c1)C[C@H](NC(=O)[C@H](C(C)C)N(C)C(=O)[C@H]1C[C@H](N=C=NCCOC)C1)C(=O)N1CCC[C@H](N1)C(=O)OCC(C)(C)C2
5.00 to 6.00

----------
The entries below come with measured pIC50 values attached.
subjectOfTest: KRAS G13D (Homo sapiens, UniProt P01116+P62937, G13D)
Sequence (P01116 1-169 isoform P01116-2 G13D limits assumed): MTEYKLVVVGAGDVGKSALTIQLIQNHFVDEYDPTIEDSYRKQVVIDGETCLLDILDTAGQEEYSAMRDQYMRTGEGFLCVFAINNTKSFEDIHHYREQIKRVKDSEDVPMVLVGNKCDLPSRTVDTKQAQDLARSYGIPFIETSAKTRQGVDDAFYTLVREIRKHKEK
Sequence (P62937 whole entry): as the sequence (P62937 whole entry) above
assaySummary: Disruption of BRAF RBD interaction with Ras (FRET / MOA assay, with Cyclophilin A)
Assay type: biochemical
recordedConditions: KRAS G13D; read-out: KRAS G13D FRET data IC50
pIC50: −log10 of the molar value.

Below: 3 compounds and their reported pIC50.
• CCn1c(-c2cccnc2[C@H](C)OC)c2c3cc(ccc31)-c1cccc(c1)C[C@H](NC(=O)[C@H](C(C)C)N(C)C(=O)[C@H]1CCN(CCO)C1)C(=O)N1CCC[C@H](N1)C(=O)OCC(C)(C)C2 = 5.00 to 6.00
• CCn1c(-c2cccnc2[C@H](C)OC)c2c3cc(ccc31)-c1csc(n1)C[C@H](NC(=O)[C@H](C(C)C)N(C)C(=O)[C@H]1CCN(C)C1)C(=O)N1CCC[C@H](N1)C(=O)OCC(C)(C)C2 = 5.00 to 6.00
• CCn1c(-c2cccnc2[C@H](C)OC)c2c3cc(ccc31)-c1csc(n1)C[C@H](NC(=O)[C@H](C(C)C)N(C)C(=O)N1CC([C@H](C)OC)C1)C(=O)N1CCC[C@H](N1)C(=O)OCC(C)(C)C2 (atropisomer, axis not shown) = 6.00 to 7.00

Continue with the compound presented below.
Need pIC50, item CCn1c(-c2cccnc2[C@H](C)OC)c2c3cc(ccc31)-c1cc(O)cc(c1)C[C@H](NS(=O)(=O)N1CCN(C)CC1)C(=O)N1CCC[C@H](N1)C(=O)OCC(C)(C)C2 (racemic)
< 5.00

----------
subjectOfTest: KRAS G12D (Homo sapiens, UniProt P01116+P62937, G12D)
assaySummary: Ras-Raf disruption / FRET / MOA assay (BRAF RBD)
Format: biochemical
recordedConditions: KRAS G12D FRET data IC50, Ras-Raf disruption, with Cyclophilin A
pIC50: −log10 of the molar value.
Below is a list of entries, each paired with its recorded pIC50 value.

- CCn1c(-c2cccnc2[C@H](C)OC)c2c3cc(ccc31)-c1cc(O)cc(c1)C[C@H](NC(=O)[C@H](C(C)C)N(C)C(=O)[C@@H](C)N(C)C(=O)[C@H]1CN1)C(=O)N1CCC[C@H](N1)C(=O)OCC(C)(C)C2 [Example 114]: 5.00 to 6.00
- CCn1c(-c2cccnc2[C@H](C)OC)c2c3cc(ccc31)-c1cc(O)cc(c1)C[C@H](NC(=O)[C@H](C(C)C)N(C)C(=O)CNC(=O)[C@@H]1N[C@@H]1C1CC1)C(=O)N1CCC[C@H](N1)C(=O)OCC(C)(C)C2 [Example 141]: 7.00 to 8.00
- CCn1c(-c2cccnc2[C@H](C)OC)c2c3cc(ccc31)-c1cc(O)cc(c1)C[C@H](NC(=O)[C@H](C1CCCC1)N(C)C(=O)[C@@H](C)N(C)C(=O)[C@@H]1N[C@@H]1C1CC1)C(=O)N1CCC[C@H](N1)C(=O)OCC(C)(C)C2 [Example 327]: 5.00 to 6.00

Can you look up pIC50 on KRAS G12D (Homo sapiens, UniProt P01116+P62937, G12D) for CCn1c(-c2cccnc2[C@H](C)OC)c2c3cc(ccc31)-c1cc(O)cc(c1)C[C@H](NC(=O)[C@H](C(C)C)N1CC[C@@H](NC(=O)[C@H]3CN3)C1=O)C(=O)N1CCC[C@H](N1)C(=O)OCC(C)(C)C2 [Example 130] ?
6.00 to 7.00

Notebook entry, KRAS G12D (Homo sapiens, UniProt P01116+P62937, G12D) assay: pIC50 of CCn1c(-c2cnccc2COC)c2c3cc(ccc31)-c1cc(O)cc(c1)C[C@H](NC(=O)[C@H](C(C)C)N(C)C(=O)CN(C)C(=O)[C@@H]1N[C@@H]1C(=O)OC)C(=O)N1CCC[C@H](N1)C(=O)OCC(C)(C)C2 [Example 49] = ?
6.00 to 7.00

Form field - read-out: pIC50; system: KRAS G12D (Homo sapiens, UniProt P01116+P62937, G12D); submitted item: CCn1c(-c2cccnc2[C@H](C)OC)c2c3cc(ccc31)-c1cc(O)cc(c1)C[C@H](NC(=O)[C@H](C(C)C)N(C)C(=O)CN(C)C(=O)[C@H]1N[C@H]1C(F)(F)F)C(=O)N1CCC[C@H](N1)C(=O)OCC(C)(C)C2 [Example 259]
6.00 to 7.00

Give KRAS G12D (Homo sapiens, UniProt P01116+P62937, G12D) pIC50 for CCn1c(-c2cccnc2[C@H](C)OC)c2c3cc(ccc31)-c1cc(O)cc(c1)C[C@H](NC(=O)[C@H](C(C)C)N(C)C(=O)[C@H]1CCN1C(=O)[C@@H]1CN1)C(=O)N1CCC[C@H](N1)C(=O)OCC(C)(C)C2 [Example 157]
6.00 to 7.00

Write down the reported pIC50 of CCn1c(-c2cccnc2[C@H](C)OC)c2c3cc(ccc31)-c1cc(O)cc(c1)C[C@H](NC(=O)[C@H](C(C)C)N(C)C(=O)CN(C)C(=O)[C@H]1CN1CCCN1CCOC1=O)C(=O)N1CCC[C@H](N1)C(=O)OCC(C)(C)C2 (some centres unmarked) [Example 272] , test system: KRAS G12D (Homo sapiens, UniProt P01116+P62937, G12D).
6.00 to 7.00
